meta.source: patent EP1268431B1

- Tested on: Human adenocarcinoma cell line LoVo
- protocol text: Cell Based Screen for Inhibitors of Raf Kinase, LoVo cells
- measurement setup: Homo sapiens, 96 h, four days, SRB
pIC50: −log10 of the molar value.
observable: pIC50

For orientation, consider the following solved cases.
Observed pIC50 on Human adenocarcinoma cell line LoVo for Cn1ccnc1Sc1ccc(Nc2c(C#N)cnc3cc(-c4ccc(C=O)cn4)ccc23)cc1Cl [Example 170] , please.
7.30

Checklist item: pIC50 tested on Human adenocarcinoma cell line LoVo, entry CN1CCN(Cc2cccc(-c3ccc4c(Nc5ccc(Sc6nccn6C)c(Cl)c5)c(C#N)cnc4c3)n2)CC1 [Example 202] , value?
8.19

Record CCN1CCN(c2ccc(-c3ccc4c(Nc5ccc(Sc6nccn6C)c(Cl)c5)c(C#N)cnc4c3)nc2)CC1 [Example 108] : what is its pIC50 with Human adenocarcinoma cell line LoVo?
8.59

pIC50 of CN(CCO)c1ccc(-c2ccc3c(Nc4ccc(Sc5nccn5C)c(Cl)c4)c(C#N)cnc3c2)cn1 [Example 216] on Human adenocarcinoma cell line LoVo?
8.15

1: CN1CCN(Cc2ccnc(-c3ccc4c(Nc5ccc(Sc6nccn6C)c(Cl)c5)c(C#N)cnc4c3)c2)CC1 [Example 206]
2: Cn1ccnc1Sc1ccc(Nc2c(C#N)cnc3cc(-c4ccc(N5CCOCC5)nc4)ccc23)cc1Cl [Example 190]
Would you let me know which has the greater pIC50 value, 1 or 2 ? Refer to your chosen entry by its label in the reply.
2
(2: 8.70, 1: 6.55)
